experimentalTarget: T1, soluble KDR extracellular domain (ECD) (Calbiochem) (human, UniProt P35968 20-764)
T1 construct: extracellular domain; Bought protein; also called KDR-ECD; VEGF Receptor 2 D1-7, Cat. #676490
T1 sequence (P35968 20-764): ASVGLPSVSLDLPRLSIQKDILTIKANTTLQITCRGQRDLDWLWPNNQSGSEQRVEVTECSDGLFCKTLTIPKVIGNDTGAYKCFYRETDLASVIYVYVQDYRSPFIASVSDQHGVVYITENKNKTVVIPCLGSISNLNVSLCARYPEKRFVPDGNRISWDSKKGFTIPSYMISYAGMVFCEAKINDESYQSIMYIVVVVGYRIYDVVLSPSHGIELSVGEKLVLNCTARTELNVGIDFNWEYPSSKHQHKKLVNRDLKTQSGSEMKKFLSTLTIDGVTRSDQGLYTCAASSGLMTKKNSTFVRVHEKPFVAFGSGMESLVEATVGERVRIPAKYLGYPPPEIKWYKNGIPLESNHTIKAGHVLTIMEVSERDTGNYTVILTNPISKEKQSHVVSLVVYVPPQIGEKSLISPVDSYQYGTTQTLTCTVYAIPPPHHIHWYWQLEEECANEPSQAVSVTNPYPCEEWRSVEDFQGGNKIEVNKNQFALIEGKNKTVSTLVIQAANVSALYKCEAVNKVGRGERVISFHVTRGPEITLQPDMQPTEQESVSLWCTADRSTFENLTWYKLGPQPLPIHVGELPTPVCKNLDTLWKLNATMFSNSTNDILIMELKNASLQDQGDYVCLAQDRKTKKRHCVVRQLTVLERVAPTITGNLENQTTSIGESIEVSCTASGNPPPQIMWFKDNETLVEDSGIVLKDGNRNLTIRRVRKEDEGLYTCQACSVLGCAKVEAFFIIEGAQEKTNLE
assaySummary: High Antigen ELISA, KDR coat 500 ng/mL, supernatant 1:25
Please respond with reported ELISA reading for every item in the list.
Give a plain numeric answer without units written out.

Req: So what does the record say about ELISA reading for 32G7 (antibody, V domains shown, Fully human mAb from XenoMouse hybridoma, tested as hybridoma supernatant) VH: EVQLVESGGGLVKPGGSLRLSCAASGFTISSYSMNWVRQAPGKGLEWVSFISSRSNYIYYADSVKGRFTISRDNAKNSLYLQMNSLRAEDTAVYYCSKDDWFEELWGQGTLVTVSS VL: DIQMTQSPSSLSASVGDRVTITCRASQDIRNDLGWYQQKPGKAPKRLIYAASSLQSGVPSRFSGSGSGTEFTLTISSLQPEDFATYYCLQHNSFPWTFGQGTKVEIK ?
Resp: 2.03

Req: So what does the record say about ELISA reading for 32F4 (antibody, V domains shown, Fully human mAb from XenoMouse hybridoma, tested as hybridoma supernatant) VH: QLQLQESGPGLVKPSGTLSLSCTVSGGSISSRSDYWGWIRQPPGKGLEWIGTIYYSGNTFYNPSLKSRVTISVDTSKKQFSLKLSSVTAADTAVYYCARQQLVLYYFDYWGQGTLVTVSS VL: EIVLTQSPGTLSLSPGERATLSCRTSQSVSSSYLAWYQQKPGQAPRLLIYGASSRATGVPDRFSGSGSGTDFSLTISRLEPEDFAVYYCQQYGSSPPLTFGGGTKVEIK ?
Resp: 4.79

Req: So what does the record say about ELISA reading for 21H6 (antibody, V domains shown, Fully human mAb from XenoMouse hybridoma, tested as hybridoma supernatant) VH: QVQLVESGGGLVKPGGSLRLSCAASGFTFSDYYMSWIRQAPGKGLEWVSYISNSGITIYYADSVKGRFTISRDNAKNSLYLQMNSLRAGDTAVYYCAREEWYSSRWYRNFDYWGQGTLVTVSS VL: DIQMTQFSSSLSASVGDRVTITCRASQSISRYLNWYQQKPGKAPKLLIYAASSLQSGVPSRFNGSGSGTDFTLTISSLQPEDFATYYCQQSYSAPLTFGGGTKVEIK ?
Resp: 6
